biological target: Gelatinase; assay: MMP inhibition by particle concentration fluorescence technique (gelatinase); assay type: biochemical; conditions: pH 7.5; 15 min enzyme preincubation; substrate 1-3 h at room temperature; read-out: MMP Inhibition Constants, Gelatinase Ki
Each entry below lists one item and its recorded Ki value.
Report only the number, with the unit nM understood.

Data point: CC(C)C[C@@]1([C@@H](CCN2C(=O)c3ccc(F)cc3C2=O)C(=O)NO)CCN(CCc2ccccc2)C1=O [Example 63] ; Ki = 32

* * *

Recorded Ki by entry
biological target: Stromelysin (Homo sapiens, UniProt P08254)
Sequence (P08254 100-477): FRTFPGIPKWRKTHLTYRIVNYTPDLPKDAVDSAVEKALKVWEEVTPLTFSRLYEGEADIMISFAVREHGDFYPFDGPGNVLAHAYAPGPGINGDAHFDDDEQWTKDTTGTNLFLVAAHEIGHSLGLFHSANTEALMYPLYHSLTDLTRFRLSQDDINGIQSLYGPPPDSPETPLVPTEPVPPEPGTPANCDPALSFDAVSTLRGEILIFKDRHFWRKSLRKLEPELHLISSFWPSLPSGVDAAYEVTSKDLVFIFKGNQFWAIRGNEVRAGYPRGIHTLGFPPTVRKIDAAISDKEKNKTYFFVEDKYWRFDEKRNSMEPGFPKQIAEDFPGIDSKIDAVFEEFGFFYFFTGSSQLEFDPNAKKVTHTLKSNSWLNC
Structures can show the parent of a compound that is named as a salt.
The reply should be a number in nM, with the unit left off.

Previously resolved entries follow.
Query CNC(=O)[C@H](Cc1ccccc1)N1CC[C@@](CC(C)C)([C@H](CCN2C(=O)c3ccccc3C2=O)C(=O)NO)C1=O [Example 58] yields Ki of 23

Please fill in: Ki reported for CNC(=O)[C@H](CCc1ccccc1)N1CC[C@](CC(=O)NO)(CC(C)C)C1=O [Example 47] = 868

Item: CC(C)C[C@@]1(CC(=O)NO)CCN([C@@H](Cc2ccccc2)C(=O)NCc2ccc(F)cc2)C1=O [Example 46] | Ki: 2100

The compound listed as CNC(=O)[C@H](Cc1ccccc1)N1CC[C@@](CC(C)C)([C@H](CCNC(=O)c2ccccc2)C(=O)NO)C1=O [Example 53] shows Ki equal to 10.5

The compound listed as CNC(=O)[C@H](CC(C)C)N1CC[C@](CC(=O)NO)(CC(C)C)C1=O [Example 32] has a reported Ki of 730

---
Ki reading for CC(C)CC1(CC(=O)NO)CNN(CCc2ccccc2)C1=O (centres unmarked) [Example 38, monohydrochloride] : 31200

Record CC(C)C[C@@]1([C@@H](CCN2C(=O)c3cccc([N+](=O)[O-])c3C2=O)C(=O)NO)CCN(CCc2ccccc2)C1=O (relative stereo) [Example 10] , field Ki: 6040

* * *

molecular target: Gelatinase; assay: MMP inhibition by particle concentration fluorescence technique (gelatinase); conditions: pH 7.5; 15 min enzyme preincubation; substrate 1-3 h at room temperature; read-out: MMP Inhibition Constants, Gelatinase Ki
# Ki listing for each entry below
Put down the number, then write its unit next to it.

Query CC(C)C[C@@]1([C@@H](CCN2C(=O)c3ccccc3C2=O)C(=O)NO)CCN(CCc2ccccc2)C1=O [Example 5] on Gelatinase; Ki returned: 115 nM

Item CC(C)C[C@@]1([C@@H](NS(=O)(=O)c2ccc(F)cc2)C(=O)NO)CCN(CCc2ccccc2)C1=O (relative stereo) was tested on Gelatinase; the reported Ki is 273 nM

I looked up `CC(C)C[C@@]1(CC(=O)NO)CCN([C@@H](Cc2ccccc2)C(=O)NCc2ccccn2)C1=O` and its Ki for Gelatinase was 10.5 nM

Further cases:
`CC(C)C[C@@]1([C@@H](CCNC(=O)c2cccc(F)c2)C(=O)NO)CCN(CCc2ccccc2)C1=O` tested on Gelatinase gave Ki: 21 nM

* * *

biological target: Gelatinase; test: MMP inhibition by particle concentration fluorescence technique (gelatinase); conditions: pH 7.5; 15 min enzyme preincubation; substrate 1-3 h at room temperature; read-out: MMP Inhibition Constants, Gelatinase Ki
MEASURED ENDPOINT: pKi
Expect pKi as a plain number equal to -log10 of the molar concentration.

Sample answers from the record:
I looked up CC(C)C[C@@]1([C@@H](CCN2C(=O)c3ccc([N+](=O)[O-])cc3C2=O)C(=O)NO)CCN(CCc2ccccc2)C1=O (relative stereo) and its pKi for Gelatinase was 6.30

Case CC(C)C[C@@]1([C@@H](CCSc2cccs2)C(=O)NO)CCN(CCc2ccccc2)C1=O (relative stereo) , Gelatinase, pKi recorded as 5.39

Record CC(C)C[C@@]1([C@@H](CCN2C(=O)c3cccc(F)c3C2=O)C(=O)NO)CCN(CCc2ccccc2)C1=O (relative stereo) ; system Gelatinase; pKi = 6.51

***
pKi of `CC(C)C[C@@]1(CC(=O)NO)CCN([C@@H](Cc2ccccc2)C(=O)N2CCOCC2)C1=O` , assay on Gelatinase, is 6.68

Considering CC(C)CC1(CC(=O)NO)CCN(CCc2ccccc2)C1=O (stereo not shown) , its pKi with Gelatinase was recorded as 5.45

The reported Gelatinase pKi of `CC(C)C[C@@]1([C@@H](CCN2Cc3cc(F)ccc3C2=O)C(=O)NO)CCN(CCc2ccccc2)C1=O` is 7.21

The compound `CC(C)C[C@@]1(CC(=O)NO)CCN([C@@H](Cc2ccccc2)C(=O)Nc2ccccc2)C1=O` on Gelatinase: pKi was 7.12
